The reported measurements were obtained from patent US8865705B2.

System: HeLa cells
Test: Cytotoxicity in HeLa cells by ATP content (ATPlite kit)
Assay type: cell-based
reported endpoint: CC50

CS(=O)(=O)CCCn1c(Cn2c(=O)n(C3CC3)c3ccccc32)nc2cc(Br)ccc21 : > 9.84 µM
CC(C)(C)C(=O)OCCCCn1c(Cn2c(=O)n(C3CC3)c3ccccc32)nc2cc(Cl)ccc21 : > 9.84 µM

Please state CC50 for every compound in the list that follows.
1. CC(C)CCn1c(Cn2c(=O)n(C3CC3)c3ccncc32)nc2cc(Br)ccc21
2. O=c1n(Cc2nc3cc(Cl)ccc3n2CCCCO)c2cnccc2n1C1CC1
3. CC(C)CCn1c(Cn2c(=O)n(C3CC3)c3ccncc32)nc2cc(Cl)ccc21
4. O=c1n(Cc2nc3cc(Cl)ccc3n2CCCCO)c2ccccc2n1C1CC1

Given back:
["> 49.2 µM", "> 9.84 µM", "> 98.4 µM", "> 9.84 µM"]

Please state CC50 for every compound in the list that follows.
1. CN(C)CCCn1c(Cn2c(=O)n(C3CC3)c3ccncc32)nc2cc(Br)ccc21
2. CS(=O)(=O)NCCCCn1c(Cn2c(=O)n(C3CC3)c3ccncc32)nc2cc(Br)ccc21
3. CS(=O)(=O)CCCn1c(Cn2c(=O)n(C3CC3)c3ccncc32)nc2cc(Cl)ccc21

Given back:
["> 98.4 µM", "> 101 µM", "> 9.84 µM"]

---

System: rgRSV224 virus
Experiment: microbe, parasite or virus in culture
Format: cell-based, respiratory syncytial virus (RSV)
Conditions: Table 2; selectivity index, CC50 (HeLa cytotoxicity) over EC50 (rgRSV224)
Please provide measured SI CC50/EC50 for the entries that follow.

CN(C(=O)CCCn1c(Cn2c(=O)n(C3CC3)c3ccncc32)nc2cc(Cl)ccc21)S(=O)(=O)C1CC1 : >604770

Next compound, SI CC50/EC50 to be filled in.
Asked: Give its SI CC50/EC50 value. Item: CC(C)CCn1c(Cn2c(=O)n(C3CC3)c3ccccc32)nc2cc(Cl)ccc21
Given back: 33466

---

Assay: Cytotoxicity in HeLa cells by ATP content (ATPlite kit)
Format: cell-based
Conditions: human; Table 1; HeLa cells, three days, ATP content; read-out: Tox CC50
reported endpoint: CC50 at 3 days

Asked: Give its CC50 at 3 days value. Item: CS(=O)(=O)CCCn1c(Cn2c(=O)n(C3CC3)c3ccncc32)nc2cc(Br)ccc21 [P2]
Given back: > 9.84 µM

---

Test system: rgRSV224 virus
Experiment: microbe, parasite or virus in culture
Type: cell-based, respiratory syncytial virus (RSV)
Conditions: Table 2; selectivity index, CC50 (HeLa cytotoxicity) over EC50 (rgRSV224)
Entries whose SI CC50/EC50 is below 70000 take condition met; entries at or above 70000 take condition not met.

Before answering, review these 5 worked examples.
O=C(CCCn1c(Cn2c(=O)n(C3CC3)c3ccncc32)nc2cc(Br)ccc21)N1CCCS1(=O)=O [P75] : condition not met
NC(=O)CCCn1c(Cn2c(=O)n(C3CC3)c3ccncc32)nc2cc(Br)ccc21 [P82] : condition not met
O=C(CCn1c(Cn2c(=O)n(C3CC3)c3ccc(F)cc32)nc2cc(Cl)ccc21)N1CCOCC1 [P62] : condition not met
N#CCCCn1c(Cn2c(=O)n(C3CC3)c3ccc(F)cc32)nc2cc(Cl)ccc21 [P73] : condition met
O=c1n(Cc2nc3cc(Cl)ccc3n2CCCC(F)(F)F)c2cc(F)ccc2n1C1CC1 [P58] : condition not met

Asked: Is it true that SI CC50/EC50 reported for O=c1n(Cc2nc3cc(Cl)ccc3n2CCCCc2ccccn2)c2cnccc2n1C1CC1 [P47] is less than 70000?
Given back: condition not met

Asked: Another molecule: O=c1n(Cc2nc3cc(Cl)ccc3n2CCCc2ccccc2)c2cnccc2n1C1CC1 [P50]
Given back: condition not met
